What TGI was measured for each of the following?
- System: SN12C renal
- RUN DESCRIPTION: NCI tumour cell line growth inhibition, 48 h

Completed entries (count: 2):
COMPOUND: CCCC(C)c1ccc(OCCCCCCN2CCNCC2)cc1 (stereo not drawn)
TGI: 9.66 µM
//
COMPOUND: CCOc1cccc(/C=N/NC(=O)c2cccc(Nc3ccnc(C(F)(F)F)c3)c2)c1O
TGI: > 70.7 µM

Below: the item to evaluate.
I am curious: what TGI value has been reported for CS(=O)(=O)Nc1ccc2ccccc2c1-c1c(NS(C)(=O)=O)ccc2ccccc12 ?
> 25 µM

====

- System: DU-145 prostate
- RUN DESCRIPTION: NCI tumour cell line growth inhibition, 48 h
EXPERIMENTAL READOUT: TGI

COMPOUND: Nn1c(C23CC4CC(CC(C4)C2)C3)n[nH]c1=S
ASSAY SYSTEM: DU-145 prostate
TGI: > 100 µM
//
COMPOUND: CC(C)(C)c1cc([N+](=O)[O-])cc([N+](=O)[O-])c1O
ASSAY SYSTEM: DU-145 prostate
TGI: > 10 µM
//
COMPOUND: COC(=O)c1ccc2[nH]c(O)c(C(=Nc3ccc(N(C)C(=O)CN4CCN(C)CC4)cc3)c3ccc4c(c3)OCO4)c2c1
ASSAY SYSTEM: DU-145 prostate
TGI: 6.06 µM
//
COMPOUND: N/N=C\c1c2ccccc2c(=O)n2c1oc1ccccc12
ASSAY SYSTEM: DU-145 prostate
TGI: 24.9 µM
//
COMPOUND: O=C1/C(=C/C=C/c2ccccc2)CCC1CNc1ccccc1 (centres undefined)
ASSAY SYSTEM: DU-145 prostate
TGI: > 100 µM
//
COMPOUND: Cc1cc(C)c2c(=O)cc(-c3cccc4ccccc34)[nH]c2n1
ASSAY SYSTEM: DU-145 prostate
TGI: > 100 µM
//
COMPOUND: NCCCNCCS
ASSAY SYSTEM: DU-145 prostate
TGI: > 100 µM
//
COMPOUND: O=C1C(=O)c2ccccc2C(O)=C1C(C1=C(O)c2ccccc2C(=O)C1=O)c1ccc(Cl)cc1
ASSAY SYSTEM: DU-145 prostate
TGI: 10.3 µM

Could you tell me TGI for each of these compounds? They are listed below.
1. CN(C)CCOc1ccc([N+](=O)[O-])c2cccnc12
2. Cc1ccc(C(=O)N/N=C(\N=Nc2cccc([N+](=O)[O-])c2)c2ccc(N(CCC#N)CCC#N)cc2C)cc1
3. CNC1(c2cc3ccccc3s2)CCCCC1
4. CCOP(=Nc1ccc(N(C)C)cc1)(OCC)OCC

["> 100 µM", "> 100 µM", "> 100 µM", "> 100 µM"]

Could you tell me TGI for each of these compounds? They are listed below.
1. Cc1c(N2C(=O)C(Cl)C2/C=C/c2ccccc2)c(=O)n(-c2ccccc2)n1C (centres undefined)
2. CCCCC1(NN=C2CCCCC2)C(=O)N(c2ccccc2)N(c2ccccc2)C1=O

1. > 100 µM
2. > 100 µM

====

- Test system: MCF7 breast
- RUN DESCRIPTION: NCI tumour cell line growth inhibition, 48 h
What TGI was measured for each of the following?

Completed entries (count: 5):
MOLECULE: NC(CSC(c1ccccc1)(c1ccccc1)c1ccccc1)C(=O)NCC(=O)O (stereo unspecified)
EXPERIMENTAL READOUT: TGI
RESULT: > 100 µM
--
MOLECULE: O=C1C2=Cc3ccccc3OC2(O)Oc2cc3ccccc3cc21 (stereo unspecified)
EXPERIMENTAL READOUT: TGI
RESULT: > 100 µM
--
MOLECULE: Cc1nc2ccc(Br)cc2c(=O)n1-c1nnc(C(C)(C)C)s1
EXPERIMENTAL READOUT: TGI
RESULT: > 10 µM
--
MOLECULE: N#Cc1c(-c2ccc(Cl)cc2)c2c(n(C3OC(CO)C(O)C(O)C3O)c1=S)CCCC2 (stereo unspecified)
EXPERIMENTAL READOUT: TGI
RESULT: > 100 µM
--
MOLECULE: N#Cc1ccc(-c2nc3c(N)ncnc3o2)cc1
EXPERIMENTAL READOUT: TGI
RESULT: > 100 µM

I am curious: what TGI value has been reported for O=C1NC(=S)S/C1=C/c1ccc2c(c1)OCO2 ?
> 100 µM

====

- Tested on: KM12 colon
- RUN DESCRIPTION: NCI tumour cell line growth inhibition, 48 h
What TGI was measured for each of the following?

Completed entries (count: 2):
MOLECULE: Cc1ccc(S(=O)(=O)N=Nc2c(O)[nH]c3cc(O)c(C(=O)O)cc23)cc1
TGI: > 100 µM
--
MOLECULE: COC(=O)c1csc([C@@H](OC(=O)[C@H](C)[C@H](CCCC(C)(Cl)Cl)OC(=O)c2csc([C@H](O)CO)n2)C(C)C)n1
TGI: 29.4 µM

Could you tell me TGI for each of these molecules? They are listed below.
1. CC1(C)OCN(c2ccc(N3CCOCC3)cc2)Cn2c1nc1ccccc12
2. O=C1C=C(Nc2ccccc2C(=O)CC(=O)C(=O)Nc2cccc([N+](=O)[O-])c2)c2ccccc2C1=O
3. COc1ccc2nc3cc(Cl)ccc3c(Sc3ccc([N+](=O)[O-])cc3C)c2c1
4. COC(=O)[C@@H]1C=C[C@H](OC2OC(COC(C)=O)C(OC(C)=O)C(OC(C)=O)C2OC(C)=O)n2c(=O)n(-c3ccccc3)c(=O)n21 (stereo partly drawn)
5. OC(CC1CCCCN1)c1ccc2c(c1)oc1ccccc12 (stereo not drawn)
6. O=C(NN1C(=O)C(Cl)C1c1ccc(Cl)cc1)c1c(Cl)c(Cl)c(Cl)c(Cl)c1-c1nc2ccccc2[nH]1 (stereo not drawn)

["> 100 µM", "> 100 µM", "> 100 µM", "19.6 µM", "> 100 µM", "> 100 µM"]

Could you tell me TGI for each of these molecules? They are listed below.
1. COC1(OC)N=C(N)C2(C#N)C(c3ccccc3)NC3=C(CCC3)C12C#N (stereo not drawn)
2. CC(C)C(O)(C(C)C)C(C)C
3. N[C@H](C(=O)O)[C@@H]1CC(Cl)=NO1
4. CCN(CC)CCNC(Cc1ccccc1)c1ccc(OCc2ccccc2)cc1 (stereo not drawn)
5. Cc1nc2ccc(Br)cc2c(=O)n1-c1nnc(C(C)(C)C)s1
6. COc1cc2c(cc1O)c(O)cc1c3cc(OC)c(OC)cc3c[n+](C)c21
7. Cc1cc(Cl)ccc1OCC(=O)Nc1nc2c(Cl)cccc2s1
8. CS(=O)(=O)CCNCc1coc(-c2ccc3ncnc(Nc4ccc(OCc5ccccc5)cc4)c3c2)c1

["> 100 µM", "> 100 µM", "> 741 µM", "18.2 µM", "> 10 µM", "> 100 µM", "> 100 µM", "11.9 µM"]

Could you tell me TGI for each of these molecules? They are listed below.
1. N#CCC(=O)N/N=C1/C(=O)N(c2ccc(Cl)cc2)C(=O)C(=O)C1c1nc2ccccc2s1 (stereo not drawn)
2. O=S(=O)(C1=CC(S(=O)(=O)c2ccccc2)CN(Cc2ccccc2)C1c1cccc2ccccc12)c1ccccc1 (stereo not drawn)

["> 100 µM", "> 69 µM"]

====

What TGI was measured for each of the following?
- System: HCT-15 colon
- RUN DESCRIPTION: NCI tumour cell line growth inhibition, 48 h

Completed entries (count: 2):
COMPOUND: Cc1cc(N(CC(C)Br)CC(C)Br)ccc1N=Nc1ccccc1C(=O)O (stereo not drawn)
ASSAY SYSTEM: HCT-15 colon
TGI: 29 µM

COMPOUND: Nc1cc([N+](=O)[O-])ccc1C(=O)N1CCC[C@H]1CO
ASSAY SYSTEM: HCT-15 colon
TGI: > 100 µM

I am curious: what TGI value has been reported for CC(=O)OCC1OC(N2C(c3ccccc3)=CC(c3cccs3)C(C#N)=C2S)C(OC(C)=O)C(OC(C)=O)C1OC(C)=O (stereo not drawn) ?
> 100 µM

====

- System: KM12 colon
- RUN DESCRIPTION: NCI tumour cell line growth inhibition, 48 h
EXPERIMENTAL READOUT: GI50

Completed entries (count: 2):
COMPOUND: CN(C)C/C=C/C(=O)Nc1ccc(C(=O)N[C@@]2(C)CCC[C@@H](Nc3ncc(Cl)c(-c4c[nH]c5ccccc45)n3)C2)nc1
GI50: 13 nM

COMPOUND: C#CC1(O)C(COP(=O)(O)OCC(COP(=O)(O)OCC2OC(n3cc(F)c(=O)[nH]c3=O)CC2O)OCCCCCCCCCCCCCCCCCC)OC(n2ccc(N)nc2=O)C1O (stereo not drawn)
GI50: 93.3 nM

I am curious: what GI50 value has been reported for CN(c1ccc(NC(=O)Nc2c(Cl)cccc2Cl)cc1)c1ccnc(Nc2cccc(CS(C)(=O)=O)c2)n1 ?
104 nM
